Data credit: patent US20250326867A1

Biological target: the molecule itself
Assay: size-exclusion chromatography, self-association (homodimer)
assay.metric: binding result

INSERT INTO assay_data (protein, assay_metric, recorded_result) VALUES
  ('tj79C2-H69A (designed binder, Designed homodimer subunit, after TEV cleavage) SGSGSREDELQARLQLLAAELAAEEADIAAERTGDPRVRELARELKRLAQEAAEEVKRDPSSSDVNAALVLITHAIMLAVEALKAAERTGDPEVRELARELVRLAVEAAEEVQRNPSSSDVNKALFLIMMAIITAVTALEAAERTGDPEVRELARELVRLAVEAAEEVQRNPSSKEVDMALLLILIAILEAVLSLLRAERSGDPEKREKARERVREAVERAEEVQRDPSGW', 'binding result', 'binds'),
  ('tj79C2-H65A (designed binder, Designed homodimer subunit, after TEV cleavage) SGSGSREDELLARYLILLAELAAEEADIAAERTGDPRVRELARELKRLAQEAAEEVKRDPSSSDVNHALHLIVLAILIAVEALEAAERTGDPEVRELARELVRLAVEAAEEVQRNPSSSDVLKALILILLAIIQAVKALEAAERTGDPEVRELARELVRLAVEAAEEVQRNPSSKEVTMALLLILIAILEAVLSLLRAERSGDPEKREKARERVREAVERAEEVQRDPSGW', 'binding result', 'binds'),
  ('JIe (designed binder, Designed homodimer subunit, after TEV cleavage) SGSSEELARESAEAAWRLAQAATRIMLAVIRGDLKEIAEALIELARAVQELARVAKEYGNDELAKTAAFLAAHVALLAIIVLIRAIKEGDDEVRELAKTAIKLASTAAKIVLDALPTAEEVRQITLLAKLAEEAADKKNEDSALAVGIAAMAVLIALLALEAAQKAGIEEAEKGARLLLKLAMDAARKKNPEEALAVFNAALDVSIALRLLQSAKRAGSEETRKLAEEMLRQALERARK', 'binding result', 'binds');
